Target: T1, SKAP1-SH3 (residue 294–355) (human, UniProt Q86WV1 294-355)
T1 chain: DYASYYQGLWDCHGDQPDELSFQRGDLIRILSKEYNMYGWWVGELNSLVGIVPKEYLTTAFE
Assay: ITC
measurement type: pKd
Scale: pKd equals -log10([C]), with [C] in mol/L.

Can you look up the measured pKd of RPPNVDLTKFHKTSS [FYB1-PRM (residue 362–376)] for me? 6.54
